Origin of values: PubChem BioAssay

Biological target: Follistatin (Homo sapiens)
Assay: follistatin binders on small-molecule microarrays, primary screen, biochemical, small-molecule microarray, 635/667 nm fluorescence (AID 1132)
Conditions: FST binding, 635 nm fluorescence, higher = more signal
List of composite z-score values.
// return a plain number; no unit text

Here's what some known entries look like.
C[N+](C)(C)CCCCCCNC(=O)[C@H]1C[C@H]2C(=O)NCC(=O)N2[C@H]1c1ccc(O)cc1 = 1.37
CC(C)(C)N1CC=CC23O[C@@H]4C=CCCOC(=O)C4[C@H]2C(=O)N(CCO)[C@@H]3C1=O (stereo partly drawn) = -0.607
C=CCNC(=O)[C@H]1[C@@H]2C(=O)O[C@@H](c3ccccc3)[C@@H](c3ccccc3)N2[C@@H](c2ccc(O)cc2)[C@]12C(=O)Nc1ccc(C#CC3(O)CCCCCC3)cc12 = 1.16

Let us examine a further case.
composite z-score reading for CC1CC/C=C\[C@H]2OC34C=CCN(C(C)C)C(=O)[C@H]3N(CCCCCCO)C(=O)[C@@H]4C2C(=O)O1 (stereo partly drawn) : -0.583

* * *

Test: S. cerevisiae RM11-1a growth modifiers, primary screen, strain RM11-1a, OD600, basal, 24 h (AID 1177);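 also: cultures grown under basal conditions with no added stressor; test concentration not given here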
Conditions: OD600, 24 h, higher = more signal, called active from +8 up or from −8 down
measurement type: z-score
// no unit string in output, number only

COC(=O)[C@@]1(Cc2ccc(F)cc2)[C@H]2c3cc(C(=O)N4CCCC4)n(CCc4ccc(O)c(O)c4)c3C[C@H]2CN1C(=O)c1ccccc1 = 1.78
COc1ccc(C#Cc2ccc3c(c2)[C@]2(C(=O)N3)[C@H](c3ccc(O)cc3)N3[C@H](c4ccccc4)[C@H](c4ccccc4)OC(=O)[C@H]3[C@@H]2C(=O)O)cc1 = 0.0708
NC(=O)N1C(=O)C2C(C1=O)C1C=C(CCCO)C2C(c2cccs2)N1Cc1cccc(OC(F)(F)F)c1 (centres undefined) = 0.199
[N-]=[N+]=Nc1ccccc1[C@@H]1OC(c2ccc(OCCCO)cc2)=N[C@]1(Cc1ccccc1)C(=O)NCC(O)CO (some centres undefined) = 1.06

Data point: COC(=O)[C@@]1(Cc2ccc(F)cc2)[C@H]2c3cc(C(=O)N4CCCC4)n(CCN4CNCC4=O)c3C[C@H]2CN1C(=O)c1ccccc1 ; z-score = 0.76

Entry under test: O=C1O[C@@H](c2ccccc2)[C@@H](c2ccccc2)N2[C@@H](c3ccc(O)cc3)[C@]3(C(=O)Nc4ccc(C#CC5=CCCCC5)cc43)[C@@H](C(=O)NC[C@H](O)c3ccccc3)[C@H]12 . Its z-score was 2.43

Notebook: C=C(C)C1CCC(C(O)C2C=CC3C(=O)N(C)C(=O)C3N2N2CCCCC2)CC1 (centres undefined) , z-score read as 1.82

Record [N-]=[N+]=NCc1ccccc1[C@H]1OC(c2ccc(OCCCO)cc2)=N[C@@]1(CCS(=O)(=O)c1ccccc1)C(=O)N1CCCCC1 . Reported z-score: 1.77

For reference, reported z-score for C=CCC(OC(C)=O)[C@@H]1[C@@H](N(Cc2cc3ccccc3o2)C(=O)c2ccc(-c3ccccc3)cc2)c2cc(OCCCO)ccc2N1C(=O)c1ccc2ccccc2c1 (some centres undefined) stands at 0.454

# z-score of N#Cc1ccc(NN2C(C(O)c3ccc(F)cc3)C=CC3C(=O)N(c4ccccc4)C(=O)C32)cc1 (centres undefined) = 0.222

Please fill in: z-score reported for O=C1C2C=CC(C(O)c3ccc(F)cc3)N(n3cnnc3)C2C(=O)N1Cc1ccccc1 (centres undefined) = -0.592

Record CC(C)C[C@@H]1NC(=O)[C@@H]2C[C@H](C(=O)NCCCCCN)[C@H](c3ccc(O)cc3)N2C1=O , field z-score: 1.04

Entry under test: CN1C(=O)C2C=CC(C(O)c3cccc(O)c3)N(Nc3ccccc3)C2C1=O (centres undefined) . Its z-score was 0.837

Documented z-score of COc1ccc([Si](C)(C)[C@H]2[C@H](CC(=O)N(CCO)Cc3ccccc3)O[C@@]3(C(=O)N(Cc4cccc(N5CCOC5=O)c4)c4ccccc43)[C@@H]2C)cc1 : 2.36
